Target: Neu5Ac(a2-3)Gal(b1-3)]Neu5Ac(a2-3)Gal(b1-4)]GlcNAc
Assay: glycan array binding signal (z-score within array); higher = stronger binding
Conditions: glycan notation: IUPAC condensed, linker removed
The sample as a whole holds a higher share of the strongest signals than the screen did.
The following binders are listed with their measured glycan array binding signal (z-score) values.
When you answer, write just the number.

The binder listed as GNL (Galanthus nivalis) (protein) MGHHHHHHHHYGTLENGHWLMVGMSIFSKDRTVELRMQDDGKLAIYYNDHCAWQSTAQQVNNAKGAVMQGDGNFCIYDKNGKATWHTNTAAPSGDSHTFVSVQDDGNLVLYKNNGATPIWSSKSNK shows glycan array binding signal (z-score) equal to -0.172

The binder listed as Erv41-EDTA (Saccharomyces cerevisiae), Q04651 (protein) MKFLVNVALVFMVVYISYIYAAAPEHHHHHHDYDIPTTENLYFQGAMGYIDQQYVVDSQVRDTVQINMDIYVNTKCDWLQINVRDQTMDRKLVLEELQLEEMPFFIPYDTKVNDINEIITPELDEILGEAIPAEFREKLDTRSFFDESDPNKAHLPEFNGCHVFGSIPVNRVSGELQITAKSLGYVASRKAPLEELKFNHVINEFSFGDFYPYIDNPLDNTAQFNQDEPLTTYVYYTSVVPTLFKKLGAEVDTNQYSVNDYRYLYKDVAAKGDKMPGIFFKYNFEPLSIVVSDVRL shows glycan array binding signal (z-score) equal to -0.585

The binder listed as MpAFP NterminalRI GFP (Marinomonas primoryensis) (protein) MSDNQFPFATLGNAIGFITKLDGSVTVQSIDGQERVLKLGDPIFFGETVLTGGSGSVTIAFVDGTDVVIGGDSIVEMTDEIYNTGDNEDLVADSSSEIDALQNAILAGDDPTLIQDAPAAGNTLADQQRVDVSIERNDNSAQAGFGVDTQSSLPTYGYDTDNGNGGQATEREYSAPSLSRTLNQSPLLEHHHHHH shows glycan array binding signal (z-score) equal to -0.531

The binder listed as Dectin2 (Homo sapiens), Q6EIG7 (protein) MMQEQQPQSTEKRGWLSLRLWSVAGISIALLSACFIVSCVVTYHFTYGETGKRLSELHSYHSSLTCFSEGTKVPAWGCCPASWKSFGSSCYFISSEEKVWSKSEQNCVEMGAHLVVFNTEAEQNFIVQQLNESFSYFLGLSDPQGNNNWQWIDKTPYEKNVRFWHLGEPNHSAEQCASIVFWKPTGWGWNDVICETRRNSICEMNKIYL shows glycan array binding signal (z-score) equal to -0.206
